Tested on: biotinyl-Leu-oxazolone
Test: self-aminoacylation, catalytic enhancement (BLO) (fold over background); higher = more active; k-Seq, kA / k0A0; sequences stand for … in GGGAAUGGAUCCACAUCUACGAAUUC…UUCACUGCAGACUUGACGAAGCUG
Variants at the floor of the assay were thinned out.
experimental_endpoint: self-aminoacylation
API doc: respond with a numeric literal and nothing else, no unit.

AUUACUCUGGUCAUGGAGUGA [Fam2.1 aminoacylation ribozyme variant] : 3.98

Exam item: What value of measured self-aminoacylation is listed for AUAACCCUGGUCAUCGAGUGC [Fam2.1 aminoacylation ribozyme variant] ?
Marked response: 2.44

Exam item: Try this sequence next: AUUACCGUGGUCAUCGAGUGA [Fam2.1 aminoacylation ribozyme variant]
Marked response: 6.4

Exam item: Try this sequence next: AUUCACUUAGGUGAUCGGGUG [Fam2.2 aminoacylation ribozyme variant]
Marked response: 3.43

Exam item: Try this sequence next: AUUCGCCUAGGUCAUCGCGUG [Fam2.2 aminoacylation ribozyme variant]
Marked response: 23.4

----------
Tested on: biotinyl-Phe-oxazolone
Assay: self-aminoacylation, catalytic enhancement (BFO) (fold over background); higher = more active; k-Seq, kA / k0A0; sequences stand for … in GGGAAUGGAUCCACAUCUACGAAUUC…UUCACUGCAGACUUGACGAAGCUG
Fewer inactive variants are shown than the library holds.
Reported self-aminoacylation is given for each of the following sequences.
API doc: respond with a numeric literal and nothing else, no unit.

Exam item: What value of measured self-aminoacylation is listed for CUACUUCUAUCAAUCGGUCUG [Fam1A.1 aminoacylation ribozyme variant] ?
Marked response: 0.796

Exam item: Try this sequence next: AUUACCCUGGUCGUCGAGGGA [Fam2.1 aminoacylation ribozyme variant]
Marked response: 6.85

Exam item: Try this sequence next: AAUUUUUCUAAUAGUCGCAAG [Fam3.1 aminoacylation ribozyme variant]
Marked response: 3.68

Exam item: Try this sequence next: GUACUUCAAACAAGCGGUCUG [Fam1A.1 aminoacylation ribozyme variant]
Marked response: 5.04

----------
System: biotinyl-Leu-oxazolone
Test: self-aminoacylation, catalytic enhancement (BLO) (fold over background); higher = more active; k-Seq, kA / k0A0; sequences stand for … in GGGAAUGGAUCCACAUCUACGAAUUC…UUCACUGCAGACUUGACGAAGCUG
This sample holds only a part of the variants without activity.
experimental_endpoint: self-aminoacylation
API doc: respond with a numeric literal and nothing else, no unit.

These recorded examples may help you get a feel for the data.
GUUACCCUGAUCAUCGAGUGA [Fam2.1 aminoacylation ribozyme variant] : 9.43
CCACACUUGAAGCAAUCGGGC [Fam1B.1 aminoacylation ribozyme variant] : 1.57
AGGUUUGCUAAUAGUCGCAAG [Fam3.1 aminoacylation ribozyme variant] : 1.41

Exam item: biotinyl-Leu-oxazolone / self-aminoacylation / ACACACUUCAAGCAAUCGGCC [Fam1B.1 aminoacylation ribozyme variant] : value?
Marked response: 2.54

Exam item: Try this sequence next: CUACUUGAAACGAUCGGUCUG [Fam1A.1 aminoacylation ribozyme variant]
Marked response: 1.24

Exam item: Try this sequence next: AUUAACCUGGUCAUCGAAUGA [Fam2.1 aminoacylation ribozyme variant]
Marked response: 1.09

Exam item: Try this sequence next: CCACUUAAAACAAUCGGUCUG [Fam1A.1 aminoacylation ribozyme variant]
Marked response: 1.05

Exam item: Try this sequence next: AUUCACGUAGGUCAGCGGGUG [Fam2.2 aminoacylation ribozyme variant]
Marked response: 3.04

Exam item: Try this sequence next: AUUACCCCGGUCAUCGGGUGA [Fam2.1 aminoacylation ribozyme variant]
Marked response: 15.9

----------
Reported self-aminoacylation is given for each of the following sequences.
Tested on: biotinyl-Ile-oxazolone
Test: self-aminoacylation, catalytic enhancement (BIO) (fold over background); higher = more active; k-Seq, kA / k0A0; sequences stand for … in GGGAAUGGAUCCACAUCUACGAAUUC…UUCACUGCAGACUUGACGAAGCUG
Variants at the floor of the assay were thinned out.

These recorded examples may help you get a feel for the data.
AUUACCCUGGUCAGCGUGUGA [Fam2.1 aminoacylation ribozyme variant] : 2.79
AUCCACCUAGGUGAUCGGGUG [Fam2.2 aminoacylation ribozyme variant] : 4.38
CUAAUUCAAACUAUCGGUCUG [Fam1A.1 aminoacylation ribozyme variant] : 0.978
AAUCUCCUAGGUCAUCGGGUG [Fam2.2 aminoacylation ribozyme variant] : 4.3
AUUACCCUGGUCAUCGAGGGC [Fam2.1 aminoacylation ribozyme variant] : 1.31

Exam item: What value of measured self-aminoacylation is listed for AAGUUAGCUAUUAGUCGCAAG [Fam3.1 aminoacylation ribozyme variant] ?
Marked response: 1.99

Exam item: Try this sequence next: CCACACUUCAUGCGAUCGGUC [Fam1B.1 aminoacylation ribozyme variant]
Marked response: 1.1

Exam item: Try this sequence next: CAGUUUGCUAACAGUCGCAAG [Fam3.1 aminoacylation ribozyme variant]
Marked response: 1.31

Exam item: Try this sequence next: AUACACCUAGGACAUCGGGUG [Fam2.2 aminoacylation ribozyme variant]
Marked response: 2.73

Exam item: Try this sequence next: AUUACCCUGGUCAUCGAGCGG [Fam2.1 aminoacylation ribozyme variant]
Marked response: 1.95

Exam item: Try this sequence next: AUAUACCUAGGUCAUCGGGUG [Fam2.2 aminoacylation ribozyme variant]
Marked response: 2.65

----------
Test system: biotinyl-Leu-oxazolone
Test: self-aminoacylation, catalytic enhancement (BLO) (fold over background); higher = more active; k-Seq, kA / k0A0; sequences stand for … in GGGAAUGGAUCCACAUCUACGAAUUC…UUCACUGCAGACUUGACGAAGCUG
Fewer inactive variants are shown than the library holds.
experimental_endpoint: self-aminoacylation
API doc: respond with a numeric literal and nothing else, no unit.

These recorded examples may help you get a feel for the data.
AUUACCCUGAUCAUCGAGGGA [Fam2.1 aminoacylation ribozyme variant] : 1.87
AUUCACUUAGUUCAUCGGGUG [Fam2.2 aminoacylation ribozyme variant] : 2.93
AUUACUCUAGUCAUCGAGUGA [Fam2.1 aminoacylation ribozyme variant] : 5.41
GUACUUCAAACAAGCGGUCUG [Fam1A.1 aminoacylation ribozyme variant] : 1.63
AUUACCCGGGUCAUCUAGUGA [Fam2.1 aminoacylation ribozyme variant] : 11
AUUACCCUGGUGAUCGAGUGG [Fam2.1 aminoacylation ribozyme variant] : 1.63
CCACAAUUCAAGCAGUCGGUC [Fam1B.1 aminoacylation ribozyme variant] : 1.17
AUUGACCUAUGUCAUCGGGUG [Fam2.2 aminoacylation ribozyme variant] : 7.74

Exam item: What value of measured self-aminoacylation is listed for AUAACUCUGGUCAUCGAGUGA [Fam2.1 aminoacylation ribozyme variant] ?
Marked response: 5.36

----------
Test system: biotinyl-Trp-oxazolone
Test: self-aminoacylation, catalytic enhancement (BWO) (fold over background); higher = more active; k-Seq, kA / k0A0; sequences stand for … in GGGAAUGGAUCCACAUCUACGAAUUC…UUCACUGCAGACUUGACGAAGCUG
Fewer inactive variants are shown than the library holds.
experimental_endpoint: self-aminoacylation
API doc: respond with a numeric literal and nothing else, no unit.

These recorded examples may help you get a feel for the data.
CCACAUUUCAAGCAAUCGCUC [Fam1B.1 aminoacylation ribozyme variant] : 2.38
AAGUUUGCUAAUAGUCGUAAG [Fam3.1 aminoacylation ribozyme variant] : 8.22
CUACUUUUAACAAUCGGUCUG [Fam1A.1 aminoacylation ribozyme variant] : 0.516
UAGUUUGCUAAUAGUCGCAGG [Fam3.1 aminoacylation ribozyme variant] : 2.22
AUGACCCUGGUCAUCCAGUGA [Fam2.1 aminoacylation ribozyme variant] : 7.7

Exam item: What value of measured self-aminoacylation is listed for CCACACUUCAAUCAAUCUGUC [Fam1B.1 aminoacylation ribozyme variant] ?
Marked response: 0.342

Exam item: Try this sequence next: CCACACUUCAAUUAAUCGGUC [Fam1B.1 aminoacylation ribozyme variant]
Marked response: 15.6

Exam item: Try this sequence next: AUUACCCUGGUUAUUGAGUGA [Fam2.1 aminoacylation ribozyme variant]
Marked response: 17.8

----------
Tested on: biotinyl-Leu-oxazolone
Assay: self-aminoacylation, catalytic enhancement (BLO) (fold over background); higher = more active; k-Seq, kA / k0A0; sequences stand for … in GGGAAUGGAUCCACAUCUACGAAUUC…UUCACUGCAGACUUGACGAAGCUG
Variants at the floor of the assay were thinned out.
experimental_endpoint: self-aminoacylation
API doc: respond with a numeric literal and nothing else, no unit.

CCGCACUUCAAGCAAUCGGUC [Fam1B.1 aminoacylation ribozyme variant] : 2.01
AAGUUUGCUAAAGGUCGCAAG [Fam3.1 aminoacylation ribozyme variant] : 0.716
AUCACCCUGGUCAUCGAGGGA [Fam2.1 aminoacylation ribozyme variant] : 3.12

Exam item: What value of measured self-aminoacylation is listed for AUUCACCAGGGUCAUCGGGUG [Fam2.2 aminoacylation ribozyme variant] ?
Marked response: 9.42

Exam item: Try this sequence next: AUCCACCUAGGUUAUCGGGUG [Fam2.2 aminoacylation ribozyme variant]
Marked response: 4.84

Exam item: Try this sequence next: CCACUUCAAACAAUCGGUCGG [Fam1A.1 aminoacylation ribozyme variant]
Marked response: 2.54

Exam item: Try this sequence next: CCACACUUCCGGCAAUCGGUC [Fam1B.1 aminoacylation ribozyme variant]
Marked response: 1.59

Exam item: Try this sequence next: AGGUUUGCUAAUAGUCGUAAG [Fam3.1 aminoacylation ribozyme variant]
Marked response: 1.1

Exam item: Try this sequence next: ACUGACCUAGGUCAUCGGGUG [Fam2.2 aminoacylation ribozyme variant]
Marked response: 7.25

Exam item: Try this sequence next: AUUCACGUAGGUUAUCGGGUG [Fam2.2 aminoacylation ribozyme variant]
Marked response: 4.91

Exam item: Try this sequence next: CUUCGUCAAACAAUCGGUCUG [Fam1A.1 aminoacylation ribozyme variant]
Marked response: 1.62

Exam item: Try this sequence next: CCAUACUUCAAGCAAUAGGUC [Fam1B.1 aminoacylation ribozyme variant]
Marked response: 0.597
